All figures here come from patent US12060347B2.

# tested-target: human PAR4 (Homo sapiens, UniProt Q96RI0)
# Sequence (Q96RI0 18-385): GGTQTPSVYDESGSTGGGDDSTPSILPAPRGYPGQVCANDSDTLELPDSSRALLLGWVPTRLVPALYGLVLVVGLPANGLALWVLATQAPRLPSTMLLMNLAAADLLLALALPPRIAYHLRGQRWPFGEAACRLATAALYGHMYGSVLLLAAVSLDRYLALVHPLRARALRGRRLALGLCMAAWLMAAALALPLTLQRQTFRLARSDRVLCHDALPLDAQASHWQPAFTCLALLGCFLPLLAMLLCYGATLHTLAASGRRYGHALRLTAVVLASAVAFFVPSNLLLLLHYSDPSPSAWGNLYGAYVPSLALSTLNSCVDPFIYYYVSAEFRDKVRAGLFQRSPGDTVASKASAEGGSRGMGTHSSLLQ
# method-summary: PAR4 FLIPR assay: antagonism of agonist-peptide-induced calcium mobilization in PAR4-expressing HEK293 cells
# study-conditions: H-Ala-Phe(4-F)-[…]NH2-induced intracellular calcium mobilization, 11-point curves
// boundary case: IC50 equal to 4 nM maps to condition not met; strictly smaller maps to condition met

Take a look at these entries with their results.
Exercise: # strict comparison: is reported IC50 < 4 nM? input = Cc1cc(-c2cc3ccccc3o2)c2ncc(-c3ccoc3)nc2c1
Solution: condition not met

Exercise: # strict comparison: is reported IC50 < 4 nM? input = COc1cnc2c(-c3nc4cc(F)c(O[C@@H](C)[C@@H](C)OC(=O)Nc5ccc(OC)nc5)cc4s3)cc(Cl)cc2c1
Solution: condition met

Exercise: # strict comparison: is reported IC50 < 4 nM? input = CCOc1cc2sc(-c3cc(C)cc4nc(OC)cnc34)nc2c(F)c1F
Solution: condition met

New cases:
Exercise: # strict comparison: is reported IC50 < 4 nM? input = COc1cnc2c(-c3cc4ccccc4o3)cc(C)cc2n1
Solution: condition not met

Exercise: # strict comparison: is reported IC50 < 4 nM? input = COC(=O)N1CCc2nc(-c3cc(C)cc4nc(OC(F)F)cnc34)sc2C1
Solution: condition not met

Exercise: # strict comparison: is reported IC50 < 4 nM? input = COCc1cccc2nc(-c3cc(C)cc4nc(OC(F)F)cnc34)sc12
Solution: condition not met
